Biological target: human recombinant HDAC6 (Homo sapiens, UniProt Q9UBN7)
Assay: HDAC6 enzyme activity inhibition (fluorimetric, in vitro)
Conditions: samples at 0.1, 1, 10, 100 and 1000 nM
The reader will find reported pIC50 values listed item by item below.
When answering, recall that pIC50 equals minus log10 of the concentration in mol/L, and write that number alone.

N=S1(=O)CCN(C(=O)N(Cc2ncc(-c3nnc(C(F)F)o3)cc2F)c2ccccc2F)CC1
6.85
CS(=N)(=O)c1ccc(N(Cc2ccc(-c3nnc(C(F)F)o3)cc2F)C(=O)N2CCS(=N)(=O)CC2)cc1 (centres unmarked)
5.85
CS(=N)(=O)c1ccc(N(Cc2ccc(-c3nnc(C(F)F)o3)cn2)C(=O)N2CCS(=N)(=O)CC2)cc1 (centres unmarked)
5.87
N=S1(=O)CCN(C(=O)N(Cc2ccc(-c3nnc(C(F)F)o3)cc2F)c2ccc(F)c(F)c2)CC1
7.30
N=S1(=O)CCN(C(=O)N(Cc2ccc(-c3nnc(C(F)F)o3)cc2F)c2ccccc2F)CC1
7.14

Bench note: what pIC50 did "CCOP(=O)(N=S1(=O)CCN(C(=O)N(Cc2ccc(-c3nnc(C(F)F)o3)cc2F)c2ccc(F)c(F)c2)CC1)OCC" show? 7.10

Same thing, different compound: "N=S1(=O)CCN(S(=O)(=O)N(Cc2ccc(-c3nnc(C(F)F)o3)cn2)c2cccc(F)c2)CC1" 7.51

Same thing, different compound: O=C(NC1CCS(=O)(=NC(=O)C(F)(F)F)CC1)N(Cc1ccc(-c2nnc(C(F)F)o2)cc1F)c1ccccc1 (centres unmarked) 6.59

Same thing, different compound: "N=S1(=O)CCN(C(=O)N(Cc2ccc(-c3nnc(C(F)F)o3)nn2)c2cccc(F)c2)CC1" 6.84

Same thing, different compound: "N=S1(=O)CCN(C(=O)N(Cc2ccc(-c3nnc(C(F)F)o3)cc2F)c2cccc(-c3cncs3)c2)CC1" 7.05

Same thing, different compound: "N=S1(=O)CCN(C(=O)N(Cc2ccc(-c3nnc(C(F)F)o3)cc2F)c2cccs2)CC1" 7.20

Same thing, different compound: "N=S1(=O)CCN(S(=O)(=O)N(Cc2ccc(-c3nnc(C(F)F)o3)cc2F)c2cccc(Cl)c2)CC1" 7.28

Same thing, different compound: "CS(=O)(=O)N=S1(=O)CCN(C(=O)N(Cc2ccc(-c3nnc(C(F)F)o3)cn2)c2ccccc2)CC1" 7.39

Same thing, different compound: CC1CN(C(=O)N(Cc2ccc(-c3nnc(C(F)F)o3)cc2F)c2ccc(F)cc2)CC(C)S1(=N)=O (centres unmarked) 6.98

Same thing, different compound: CS(=N)(=O)C1CCN(C(=O)N(Cc2ccc(-c3nnc(C(F)F)o3)cc2F)c2ccccc2)CC1 (centres unmarked) 7.02

Same thing, different compound: N=S1(=O)CC(N2CC3(CN(C(=O)N(Cc4ccc(-c5nnc(C(F)F)o5)cc4F)c4ccccc4)C3)C2)C1 (centres unmarked) 7.15

Same thing, different compound: "N=S1(=O)CCN(C(=O)N(Cc2ccc(-c3nnc(C(F)F)o3)cc2F)c2ccc(Cl)cc2Cl)CC1" 7.16

Same thing, different compound: "CC(=O)N1CCC(c2ccc(N(Cc3ccc(-c4nnc(C(F)F)o4)cc3F)C(=O)N3CCS(=N)(=O)CC3)cc2)CC1" 6.46

----------
Biological target: human recombinant HDAC6 (Homo sapiens, UniProt Q9UBN7)
Assay: HDAC6 enzyme activity inhibition (fluorimetric, in vitro)
Conditions: samples at 0.1, 1, 10, 100 and 1000 nM
Protocol: A HDAC enzyme inhibitory capacity of a test material was measured by using HDAC1 Fluorimetric Drug Discovery Assay Kit (Enzolifesciences: BML-AK511) and HDAC6 human recombinant (Calbiochem: 382180). […] For the test on the HDAC1 enzyme activity, human recombinant HDAC1 (BML-SE456) was used as a zymogen and Fluor de Lys®-SIRT1 (BNL-KI177) was used as a substrate. […] After that, a fluorescence value (Ex 360, Em 460) was measured with a multi-plate reader (FlexStation 3, Molecular Device). […]
MEASUREMENT_NAME: IC50 (nM)
Output spec: scalar in nM, unitless text.

COc1ccc(N(Cc2ccc(-c3nnc(C(F)F)o3)cc2F)C(=O)N2CCS(=N)(=O)CC2)cc1
86.6

Bench note: what IC50 did "N=S1(=O)CCN(C(=O)N(Cc2ccc(-c3nnc(C(F)F)o3)cc2F)c2ccc3c(c2)CCO3)CC1" show? 75.2

Same thing, different molecule: "CC(=O)N=S1(=O)CCN(C(=O)N(Cc2ccc(-c3nnc(C(F)F)o3)cc2F)c2ccccc2)CC1" 84.8

Same thing, different molecule: "N=S1(=O)CCN(c2c(N(Cc3ncc(-c4nnc(C(F)F)o4)cc3F)c3ccccc3)c(=O)c2=O)CC1" 29.8

Same thing, different molecule: N=S1(=O)C[C@@H]2C[C@H]1CN2C(=O)N(Cc1ccc(-c2nnc(C(F)F)o2)cc1F)c1ccccc1 (stereo partly drawn) 39

Same thing, different molecule: N=S1(=O)CC(N2C[C@@H]3C[C@H]2CN3c2c(N(Cc3ccc(-c4nnc(C(F)F)o4)cn3)c3ccccc3)c(=O)c2=O)C1 (stereo partly drawn) 37.4

----------
The reader will find reported pIC50 values listed item by item below.
Target: human recombinant HDAC6 (Homo sapiens, UniProt Q9UBN7)
Sequence (Q9UBN7 1-1215): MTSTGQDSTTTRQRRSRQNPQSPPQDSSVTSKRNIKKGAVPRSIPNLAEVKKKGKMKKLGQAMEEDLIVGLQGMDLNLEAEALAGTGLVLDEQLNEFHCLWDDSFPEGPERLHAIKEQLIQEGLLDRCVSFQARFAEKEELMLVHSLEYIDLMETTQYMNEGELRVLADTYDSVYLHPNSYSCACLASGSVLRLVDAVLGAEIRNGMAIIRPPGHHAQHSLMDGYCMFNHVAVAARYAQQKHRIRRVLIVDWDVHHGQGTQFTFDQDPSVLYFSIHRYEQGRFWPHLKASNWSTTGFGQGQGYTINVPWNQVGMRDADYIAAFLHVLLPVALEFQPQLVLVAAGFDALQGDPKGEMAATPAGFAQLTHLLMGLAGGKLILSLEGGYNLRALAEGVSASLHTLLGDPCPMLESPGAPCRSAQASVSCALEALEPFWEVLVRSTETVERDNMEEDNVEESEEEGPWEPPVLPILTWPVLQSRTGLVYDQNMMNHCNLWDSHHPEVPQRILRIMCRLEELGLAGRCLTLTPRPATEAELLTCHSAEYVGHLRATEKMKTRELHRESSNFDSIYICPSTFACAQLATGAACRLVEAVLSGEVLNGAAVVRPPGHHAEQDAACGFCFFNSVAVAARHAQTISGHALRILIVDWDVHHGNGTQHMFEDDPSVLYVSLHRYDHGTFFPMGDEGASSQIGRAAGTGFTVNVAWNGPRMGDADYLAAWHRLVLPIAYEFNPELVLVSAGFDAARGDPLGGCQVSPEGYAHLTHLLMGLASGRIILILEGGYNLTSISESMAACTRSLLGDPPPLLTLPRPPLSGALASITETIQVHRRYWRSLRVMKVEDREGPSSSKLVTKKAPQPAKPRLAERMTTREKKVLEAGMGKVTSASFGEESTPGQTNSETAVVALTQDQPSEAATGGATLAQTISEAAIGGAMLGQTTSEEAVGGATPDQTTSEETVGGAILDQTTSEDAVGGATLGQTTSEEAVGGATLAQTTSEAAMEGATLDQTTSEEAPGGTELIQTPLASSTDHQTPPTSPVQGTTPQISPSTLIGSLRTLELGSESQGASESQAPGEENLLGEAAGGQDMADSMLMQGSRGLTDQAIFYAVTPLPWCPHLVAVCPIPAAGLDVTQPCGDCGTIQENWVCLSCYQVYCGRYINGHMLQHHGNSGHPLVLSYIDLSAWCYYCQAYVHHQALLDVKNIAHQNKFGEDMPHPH
Test: HDAC6 enzyme activity inhibition (fluorimetric, in vitro)
Conditions: samples at 0.1, 1, 10, 100 and 1000 nM
When answering, recall that pIC50 equals minus log10 of the concentration in mol/L, and write that number alone.

A selection of reference data follows.
N=S1(=O)CCN(C(=O)N(Cc2ccc(-c3nnc(C(F)F)o3)cn2)c2cccc(F)c2)CC1
7.57
CS(=N)(=O)C1CN(C(=O)N(Cc2ccc(-c3nnc(C(F)F)o3)cn2)c2cccc(F)c2)C1 (stereo not drawn)
7.33
N=S1(=O)CCN(S(=O)(=O)N(Cc2ccc(-c3nnc(C(F)F)o3)cc2F)c2ccc(F)cc2)CC1
7.10

Bench note: what pIC50 did "N=S1(=O)CCN(S(=O)(=O)N(Cc2ncc(-c3nnc(C(F)F)o3)cc2F)c2ccc(F)cc2)CC1" show? 7.29

Same thing, different compound: "N=S1(=O)CCN(C(=O)N(Cc2ccc(-c3nnc(C(F)F)o3)cc2F)c2cc(F)ccc2F)CC1" 7.29

Same thing, different compound: "N=S1(=O)CCN(S(=O)(=O)N(Cc2ccc(-c3nnc(C(F)F)o3)cn2)c2ccc(F)cc2)CC1" 7.40

Same thing, different compound: CS(=N)(=O)C1CN(C(=O)N(Cc2ccc(-c3nnc(C(F)F)o3)cc2F)c2cccc(F)c2)C1 (stereo not drawn) 7.34

Same thing, different compound: "COC(=O)N=S1(=O)CCN(C(=O)N(Cc2ccc(-c3nnc(C(F)F)o3)cc2F)c2ccccc2)CC1" 7.17
